type: physicochemical; settings: in xylene, 25° C.; read-out: t1/2 at 25° C. (converted)
Where a name gives a salt, the structure may show the parent alone.
Measured attribute: half-life (days)
Supply the numeric figure in days, leaving out any unit text.

Consider the following illustrative entries.
>>> value_observed("COC1(c2cccc(O)c2)OOC12C1CC3CC(C1)CC2C3 (stereo not drawn)")
1500
>>> value_observed("COC1(c2cccc(OP(=O)(O)O)c2)OOC12C1CC3CC(C1)CC2C3 (stereo not drawn) [2c, disodium salt]")
6940

Okay, now this molecule:
Query string: Give reported half-life value for COC1(c2cccc(OC(C)=O)c2)OOC12C1CC3CC(C1)CC2C3 (stereo not drawn)
Result string: 4750
